Tested on: Tobacco mosaic virus
TEST DETAILS: Antiviral activity against Tobacco mosaic virus (TMV) pre-treated with 500 ug/mL compound for 30 min followed by inoculation on left side of Nicotiana tabacum leaves assessed as virus inactivation effect measured 3 to 4 days post viral infection
Format: functional
Each record's Activity is compared with group 1 (below 40%), group 2 (40% to below 70%), group 3 (70% or more) to give its class.

# COMPOUND, ASSIGNED LABEL
rows = [
    ("COc1cc2c3c(c4cc(OC)c(OC)cc4c2cc1OC)CN1CCC[C@@H]1C3 [TYLOPHORINE]", "group 2"),
    ("COc1cc2cc(CN3CCC[C@H]3CO)c3cc(OC)c(OC)cc3c2cc1OC", "group 3"),
    ("COC(=O)[C@@H]1CCCN1Cc1cc2cc(OC)c(OC)cc2c2cc(OC)c(OC)cc12", "group 3"),
    ("COC(=O)C1CCCCN1Cc1cc2cc(OC)c(OC)cc2c2cc(OC)c(OC)cc12 (stereo not drawn)", "group 2"),
    ("COC(=O)CCCCCNC(=O)c1cc2cc(OC)c(OC)cc2c2cc(OC)c(OC)cc12", "group 1"),
]

Q: Which class does `COc1cc2cc(C(=O)NCCCCCCO)c3cc(OC)c(OC)cc3c2cc1OC` fall in?
A: group 2

Q: How about COc1cc2cc(CN3CCCCC3CO)c3cc(OC)c(OC)cc3c2cc1OC (stereo not drawn) ?
A: group 1

Q: Follow-up entry: COC(=O)C1CCCCN1C(=O)c1cc2cc(OC)c(OC)cc2c2cc(OC)c(OC)cc12 (stereo not drawn)
A: group 1

Q: Now try `COC(=O)[C@@H]1CCCN1C(=O)c1cc2cc(OC)c(OC)cc2c2cc(OC)c(OC)cc12` .
A: group 1

* * *

Test system: Tobacco mosaic virus
TEST DETAILS: Antiviral activity against Tobacco mosaic virus (TMV) inoculated on whole Nicotiana tabacum leaves followed by smearing with 100 ug/mL compound solution on left side of leaves assessed as viral infection curative effect measured 3 to 4 days post viral infection
Format: functional
ATTRIBUTE MEASURED: Activity (%)
Report the value in % with no unit label.

# COMPOUND, UNITS TEXT, Activity
data = [
    ("COc1cc2cc(CN3CCC(O)CC3)c3cc(OC)c(OC)cc3c2cc1OC", "%", 33.7),
    ("COc1cc2cc(CN3CCC[C@H]3CO)c3cc(OC)c(OC)cc3c2cc1OC", "%", 13.4),
    ("COC(=O)[C@@H]1CCCN1C(=O)c1cc2cc(OC)c(OC)cc2c2cc(OC)c(OC)cc12", "%", 10.6),
]

Q: Param readout = Activity; param system = Tobacco mosaic virus; param query = `COC(=O)CCCCCNC(=O)c1cc2cc(OC)c(OC)cc2c2cc(OC)c(OC)cc12` ; response: value
A: 48

Q: Can you check `CNCC(=O)N[C@@H](CO)C(=O)N[C@H]1[C@H](O)[C@@H](O)[C@H](n2ccc(N)nc2=O)O[C@@H]1C(N)=O` next?
A: 39

Q: Similarly, `COc1cc2cc(CN3CCC[C@H]3C(=O)O)c3cc(OC)c(OC)cc3c2cc1OC` ?
A: 14.2

Q: Now the compound COc1cc2cc(CN3CCCCC3CO)c3cc(OC)c(OC)cc3c2cc1OC (centres undefined)
A: 36.2

Q: # iterate: COC(=O)C1CCCCN1C(=O)c1cc2cc(OC)c(OC)cc2c2cc(OC)c(OC)cc12 (centres undefined)
A: 4.9

Q: Please answer likewise for `COc1cc2cc(C(=O)NCCCCCCO)c3cc(OC)c(OC)cc3c2cc1OC`
A: 49.6

* * *

Tested on: Tobacco mosaic virus
TEST DETAILS: Antiviral activity against Tobacco mosaic virus (TMV) inoculated on 100 ug/mL compound smeared Nicotiana tabacum leaves assessed as protective effect against viral infection measured 3 to 4 days post viral infection
Format: functional
Below is a list of entries, each paired with its recorded Activity value.
Numbers only; they are read as %.

# COMPOUND, MEASURED ON, Activity (%)
records = [
    ("COc1cc2c3c(c4cc(OC)c(OC)cc4c2cc1OC)CN1CCC[C@@H]1C3 [TYLOPHORINE]", "Tobacco mosaic virus", 37.9),
    ("COc1cc2cc(CN3CCC(O)CC3)c3cc(OC)c(OC)cc3c2cc1OC", "Tobacco mosaic virus", 11.3),
    ("COC(=O)CCCCCNC(=O)c1cc2cc(OC)c(OC)cc2c2cc(OC)c(OC)cc12", "Tobacco mosaic virus", 14.2),
    ("COc1cc2cc(C(=O)NCCCCCCO)c3cc(OC)c(OC)cc3c2cc1OC", "Tobacco mosaic virus", 22.5),
]

Switching to the query record.
Q: Quick one: Activity for `COC(=O)[C@@H]1CCCN1Cc1cc2cc(OC)c(OC)cc2c2cc(OC)c(OC)cc12` ?
A: 38.3

* * *

System: Tobacco mosaic virus
TEST DETAILS: Antiviral activity against Tobacco mosaic virus (TMV) inoculated on 100 ug/mL compound smeared Nicotiana tabacum leaves assessed as protective effect against viral infection measured 3 to 4 days post viral infection
Type: functional
ATTRIBUTE MEASURED: Activity
Form entry: enter the amount, then its unit.

# COMPOUND, Activity
rows = [
    ("COc1cc2cc(CN3CCCCC3C(=O)O)c3cc(OC)c(OC)cc3c2cc1OC (centres undefined)", "10%"),
    ("COC(=O)C1CCCCN1C(=O)c1cc2cc(OC)c(OC)cc2c2cc(OC)c(OC)cc12 (centres undefined)", "12.5%"),
]

Q: Which Activity value belongs to CNCC(=O)N[C@@H](CO)C(=O)N[C@H]1[C@H](O)[C@@H](O)[C@H](n2ccc(N)nc2=O)O[C@@H]1C(N)=O [NINGNANMYCIN] ?
A: 47.5%

Q: Queued: `COC(=O)[C@@H]1CCCN1C(=O)c1cc2cc(OC)c(OC)cc2c2cc(OC)c(OC)cc12`
A: 19.2%

* * *

# reported Activity; entries follow
Tested on: Tobacco mosaic virus
TEST DETAILS: Antiviral activity against Tobacco mosaic virus (TMV) inoculated on whole Nicotiana tabacum leaves followed by smearing with 100 ug/mL compound solution on left side of leaves assessed as viral infection curative effect measured 3 to 4 days post viral infection
Format: functional
Express it in %; write the number only.

# COMPOUND, NUMERIC VALUE
rows = [
    ("COC(=O)C1CCCCN1Cc1cc2cc(OC)c(OC)cc2c2cc(OC)c(OC)cc12 (centres undefined)", 1.2),
    ("COc1cc2cc(CN3CCCCC3C(=O)O)c3cc(OC)c(OC)cc3c2cc1OC (centres undefined)", 28.9),
    ("COC(=O)[C@@H]1CCCN1Cc1cc2cc(OC)c(OC)cc2c2cc(OC)c(OC)cc12", 2.9),
]

Q: Item `COc1cc2c3c(c4cc(OC)c(OC)cc4c2cc1OC)CN1CCC[C@@H]1C3` with Tobacco mosaic virus - Activity?
A: 57.7

* * *

System: Tobacco mosaic virus
TEST DETAILS: Antiviral activity against Tobacco mosaic virus (TMV) inoculated on 100 ug/mL compound smeared Nicotiana tabacum leaves assessed as protective effect against viral infection measured 3 to 4 days post viral infection
Assay type: functional
ATTRIBUTE MEASURED: Activity (%)
Unit % implied. Number only.

# COMPOUND, Activity, %
data = [
    ("COc1cc2cc(CN3CCC[C@H]3C(=O)O)c3cc(OC)c(OC)cc3c2cc1OC", 23.3),
    ("COc1cc2cc(CN3CCC[C@H]3CO)c3cc(OC)c(OC)cc3c2cc1OC", 10.4),
    ("COC(=O)C1CCCCN1Cc1cc2cc(OC)c(OC)cc2c2cc(OC)c(OC)cc12 (centres undefined)", 27.1),
]

// next entry
Q: Which value of Activity has been reported for COc1cc2cc(CN3CCCCC3CO)c3cc(OC)c(OC)cc3c2cc1OC (centres undefined) in the records?
A: 4.6

* * *

Each entry below lists one item and its recorded Activity value.
Tested on: Tobacco mosaic virus
TEST DETAILS: Antiviral activity against Tobacco mosaic virus (TMV) pre-treated with 500 ug/mL compound for 30 min followed by inoculation on left side of Nicotiana tabacum leaves assessed as virus inactivation effect measured 3 to 4 days post viral infection
Type: functional
Hi! Could you send only the number? It should be in %, unit omitted.

Here's what some known entries look like.
# MOLECULE, UNITS TEXT, NUMERIC VALUE
records = [
    ("CNCC(=O)N[C@@H](CO)C(=O)N[C@H]1[C@H](O)[C@@H](O)[C@H](n2ccc(N)nc2=O)O[C@@H]1C(N)=O", "%", 68.4),
    ("COc1cc2cc(CN3CCCCC3C(=O)O)c3cc(OC)c(OC)cc3c2cc1OC (centres undefined)", "%", 68.9),
    ("COc1cc2cc(CN3CCC(O)CC3)c3cc(OC)c(OC)cc3c2cc1OC", "%", 71.1),
]

For the next question, use this molecule.
Q: Recorded Activity for `COc1cc2cc(CN3CCC[C@H]3C(=O)O)c3cc(OC)c(OC)cc3c2cc1OC` , please?
A: 39.6
